# EXPERIMENT_NOTES: Volume of distribution at steady state in Sprague-Dawley rat at 1 mg/kg, iv
# Assay type: ADME, organism-based
# Parameters: dose 1 mg/kg, route intravenous
# CONDITION_PARAMETERS: in vivo, read-out: Vdss
MEASUREMENT_TYPE: Vd (L/kg)

INSERT INTO assay_data (record_smiles, value_measured) VALUES
  ('Cc1nc2cccc(C(F)(F)F)c2c(=O)n1-c1ccc(OCCCN2CCCC2)cc1', 4.4);

* * *

# EXPERIMENT_NOTES: AUC (0 to infinity) in Beagle dog at 3 mg/kg, po
# Assay type: ADME, organism-based, Canis lupus familiaris
# Set-up: time infinity, dose 3 mg/kg, route oral
# CONDITION_PARAMETERS: plasma
MEASUREMENT_TYPE: AUC(0-inf) (µM·h)

INSERT INTO results (record_smiles, readout_units, value_measured) VALUES
  ('Cc1nc2cccc(C(F)(F)F)c2c(=O)n1-c1ccc(OCCCN2CCCC2)cc1', 'µM·h', 11.8);

* * *

# ASSAY_SYSTEM: Histamine H3 receptor (Homo sapiens, UniProt Q9Y5N1)
# Sequence (Q9Y5N1 whole entry): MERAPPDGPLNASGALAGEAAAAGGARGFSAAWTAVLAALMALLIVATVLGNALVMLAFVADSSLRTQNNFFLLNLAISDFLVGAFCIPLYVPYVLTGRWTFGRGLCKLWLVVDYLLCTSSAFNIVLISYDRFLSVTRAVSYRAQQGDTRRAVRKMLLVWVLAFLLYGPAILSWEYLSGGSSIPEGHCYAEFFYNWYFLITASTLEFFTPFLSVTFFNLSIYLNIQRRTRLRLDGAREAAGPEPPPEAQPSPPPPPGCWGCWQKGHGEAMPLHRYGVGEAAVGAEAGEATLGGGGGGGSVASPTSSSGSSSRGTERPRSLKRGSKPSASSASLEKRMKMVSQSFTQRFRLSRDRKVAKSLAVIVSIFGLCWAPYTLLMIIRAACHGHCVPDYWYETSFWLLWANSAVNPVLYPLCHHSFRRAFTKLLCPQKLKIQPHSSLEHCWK
# EXPERIMENT_NOTES: Inverse agonist activity at human histamine H3 receptor expressed in CHO-K1 cells assessed as inhibition of N-alpha-methylhistamine-induced [35S]GTPgammaS binding
Reported values of IC50 for individual entries
MEASUREMENT_TYPE: IC50

INSERT INTO results (compound, measurement_type, value_measured) VALUES
  ('Cc1nc2ccccc2c(=O)n1-c1ccc(OCCCN2CCC(C)C2)cc1 (stereo not drawn)', 'IC50', '5.8 nM'),
  ('Cc1nc2ccccc2c(=O)n1-c1ccc(OCCCN2CCCCCC2)cc1', 'IC50', '1.6 nM'),
  ('Cc1nc2ccccc2c(=O)n1-c1ccc(OCCCN2CCC[C@@H]2C)cc1', 'IC50', '2.2 nM');

* * *

# EXPERIMENT_NOTES: Cmax in Sprague-Dawley rat at 3 mg/kg, po
# Format: ADME, organism-based
# Set-up: dose 3 mg/kg, route oral
# CONDITION_PARAMETERS: in vivo
MEASUREMENT_TYPE: Cmax (nM)

INSERT INTO results (compound, value_measured) VALUES
  ('Cc1nc2cccc(C(F)(F)F)c2c(=O)n1-c1ccc(OCCCN2CCCC2)cc1 [MK-0249]', 1010);

* * *

# EXPERIMENT_NOTES: Ratio of drug level in Sprague-Dawley rat brain to plasma
# Assay type: ADME
# CONDITION_PARAMETERS: read-out: BPR
MEASUREMENT_TYPE: Kp

INSERT INTO assay_data (compound, value_measured) VALUES
  ('Cc1nc2cccc(C(F)(F)F)c2c(=O)n1-c1ccc(OCCCN2CCCC2)cc1 [MK-0249]', 1.1);

* * *

# EXPERIMENT_NOTES: Half life in Beagle dog at 1 mg/kg, iv
# Format: ADME, organism-based, Canis lupus familiaris
# Parameters: dose 1 mg/kg, route intravenous
# CONDITION_PARAMETERS: in vivo
MEASUREMENT_TYPE: half-life (h)

INSERT INTO measurements (record_smiles, value_measured) VALUES
  ('Cc1nc2cccc(C(F)(F)F)c2c(=O)n1-c1ccc(OCCCN2CCCC2)cc1', 9.9);

* * *

# EXPERIMENT_NOTES: Cmax in Beagle dog at 3 mg/kg, po
# Assay type: ADME, organism-based, Canis lupus familiaris
# Parameters: dose 3 mg/kg, route oral
# CONDITION_PARAMETERS: in vivo
MEASUREMENT_TYPE: Cmax (nM)

INSERT INTO measurements (record_smiles, measurement_type, value_measured) VALUES
  ('Cc1nc2cccc(C(F)(F)F)c2c(=O)n1-c1ccc(OCCCN2CCCC2)cc1', 'Cmax', 1800);

* * *

# EXPERIMENT_NOTES: Plasma clearance in rhesus monkey at 1 mg/kg, iv
# Format: ADME, organism-based, Macaca mulatta
# Design: dose 1 mg/kg, route intravenous
MEASUREMENT_TYPE: clearance (mL/min/kg)

INSERT INTO results (compound, measurement_type, value_measured) VALUES
  ('Cc1nc2cccc(C(F)(F)F)c2c(=O)n1-c1ccc(OCCCN2CCCC2)cc1 [MK-0249]', 'clearance', 18);

* * *

# EXPERIMENT_NOTES: Cmax in rhesus monkey at 3 mg/kg, po
# Type: ADME, organism-based, Macaca mulatta
# Set-up: dose 3 mg/kg, route oral
# CONDITION_PARAMETERS: in vivo
MEASUREMENT_TYPE: Cmax (nM)

INSERT INTO results (compound, measurement_type, value_measured) VALUES
  ('Cc1nc2cccc(C(F)(F)F)c2c(=O)n1-c1ccc(OCCCN2CCCC2)cc1 [MK-0249]', 'Cmax', 440);

* * *

# EXPERIMENT_NOTES: Plasma clearance in Sprague-Dawley rat at 1 mg/kg, iv
# Assay type: ADME, organism-based
# Design: dose 1 mg/kg, route intravenous
MEASUREMENT_TYPE: clearance (mL/min/kg)

INSERT INTO results (record_smiles, readout_units, value_measured) VALUES
  ('Cc1nc2cccc(C(F)(F)F)c2c(=O)n1-c1ccc(OCCCN2CCCC2)cc1', 'mL/min/kg', 12);

* * *

# ASSAY_SYSTEM: Histamine H3 receptor (Homo sapiens, UniProt Q9Y5N1)
# EXPERIMENT_NOTES: Inverse agonist activity at human histamine H3 receptor expressed in CHO-K1 cells assessed as inhibition of N-alpha-methylhistamine-induced [35S]GTPgammaS binding
pIC50: −log10 of the molar value.
// criterion not met strictly below 8 in pIC50; criterion met otherwise

INSERT INTO assay_data (compound, label_value) VALUES
  ('Cc1nc2ccccc2c(=O)n1-c1ccc(OCCCN2CCC[C@H]2C)cc1', 'criterion met'),
  ('Cc1nc2ccccc2c(=O)n1-c1ccc(OCCCN2CCC[C@H](C)C2)cc1', 'criterion met'),
  ('Cc1nc2ccccc2c(=O)n1-c1ccc(OCCCN2CC(C)CC(C)C2)cc1 (stereo not given)', 'criterion not met'),
  ('Cc1nc2ccccc2c(=O)n1-c1ccc(OCCCN2CCC(C)CC2)cc1', 'criterion not met'),
  ('CCN(CC)CCCOc1ccc(-n2c(C)nc3ccccc3c2=O)cc1', 'criterion not met'),
  ('Cc1nc2ccccc2c(=O)n1-c1ccc(OCCCN2CCCCC2)cc1', 'criterion met'),
  ('Cc1nc2ccccc2c(=O)n1-c1ccc(OCCCN2[C@H](C)CC[C@H]2C)cc1', 'criterion not met'),
  ('Cc1nc2ccccc2c(=O)n1-c1ccc(OCCCN2CCC[C@@H](C)C2)cc1', 'criterion not met');

* * *

# EXPERIMENT_NOTES: Plasma concentration in Sprague-Dawley rat at 10 mg/kg, po after 2 hrs
# Assay type: ADME, organism-based
# Set-up: dose 10 mg/kg, route oral
MEASUREMENT_TYPE: concentration at 2 h (nM)

INSERT INTO assay_data (record_smiles, readout_units, value_measured) VALUES
  ('Cc1nc2cccc(C(F)(F)F)c2c(=O)n1-c1ccc(OCCCN2CCCC2)cc1', 'nM', 1580);

* * *

# EXPERIMENT_NOTES: AUC (0 to infinity) in Sprague-Dawley rat at 3 mg/kg, po
# Assay type: ADME, organism-based
# Set-up: time infinity, dose 3 mg/kg, route oral
# CONDITION_PARAMETERS: plasma
MEASUREMENT_TYPE: AUC(0-inf)

INSERT INTO results (record_smiles, value_measured) VALUES
  ('Cc1nc2cccc(C(F)(F)F)c2c(=O)n1-c1ccc(OCCCN2CCCC2)cc1', '6.35 µM·h');

* * *

# EXPERIMENT_NOTES: Volume of distribution at steady state in rhesus monkey at 1 mg/kg, iv
# Assay type: ADME, organism-based, Macaca mulatta
# Design: dose 1 mg/kg, route intravenous
# CONDITION_PARAMETERS: in vivo, read-out: Vdss
MEASUREMENT_TYPE: Vd (L/kg)

INSERT INTO assay_data (compound, measurement_type, value_measured) VALUES
  ('Cc1nc2cccc(C(F)(F)F)c2c(=O)n1-c1ccc(OCCCN2CCCC2)cc1 [MK-0249]', 'Vd', 6);

* * *

# EXPERIMENT_NOTES: Half life in Sprague-Dawley rat at 1 mg/kg, iv
# Type: ADME, organism-based
# Set-up: dose 1 mg/kg, route intravenous
# CONDITION_PARAMETERS: in vivo
MEASUREMENT_TYPE: half-life (h)

INSERT INTO results (molecule, measurement_type, value_measured) VALUES
  ('Cc1nc2cccc(C(F)(F)F)c2c(=O)n1-c1ccc(OCCCN2CCCC2)cc1 [MK-0249]', 'half-life', 5.5);

* * *

# EXPERIMENT_NOTES: Ratio of drug level in MDR1a-deficient CF1 mouse brain to plasma at 10 mg/kg, po after 2 hrs
# Format: ADME, organism-based
# Parameters: dose 10 mg/kg, route oral
# CONDITION_PARAMETERS: read-out: BPR
MEASUREMENT_TYPE: Kp at 2 h

INSERT INTO measurements (compound, measurement_type, value_measured) VALUES
  ('Cc1nc2cccc(C(F)(F)F)c2c(=O)n1-c1ccc(OCCCN2CCCC2)cc1 [MK-0249]', 'Kp at 2 h', 14);
